Exercise: for every item that follows, state its recorded GI50.
- Tested on: SK-MEL-5
- ASSAY_OVERVIEW: NCI tumour cell line growth inhibition, 48 h
Activity calls are given as the source filed them. Cut-off read from the data, not from the text of the source: active = GI50 up to about 1.1 µM and inactive = higher. Square brackets hold non-standard residues; d marks the D form. Peptide text beside a SMILES is read from it. * marks the point of attachment. ξ: configuration not given here. NMeN = CN[C@@H](CC(N)=O)C(=O)O; NMeV = CN[C@H](C(=O)O)C(C)C; ξNMeV = CNC(C(=O)O)C(C)C; Boc = CC(C)(C)OC(=O)*; ξNMeA = CNC(C)C(=O)O

Example cases with answers are listed next.
COMPOUND	GI50
C=CCNC(=O)NNC(O)(C(=O)OCC)C(F)(F)F (stereo not drawn)	> 100 µM (inactive)
CCCCCCCCCCCC(=O)OCC(O)CO (stereo not drawn) [GLYCEROL MONOLAURATE]	59 µM (inactive)
COc1ccc(C2=Nc3ccccc3SC(C)C2)cc1OC (stereo not drawn)	17.9 µM (inactive)

Please supply GI50 for each of the following items, keeping them in order.
1. O=c1[nH]nc(-c2ccccc2)n1/N=C/c1ccco1
2. CO/C(C)=N/CCC1=CCCCC1
3. COc1ccc2c(c1)/C(=C\c1c(Cl)[nH]c3ccccc13)C(=O)N2
4. C[N+](C)(C)CC1CCc2ccccc2C1=O (stereo not drawn)
5. CN(NC1OC(CO)C(O)C(O)C1O)c1ccccc1 (stereo not drawn)
6. C[n+]1c(/C=C/c2ccc(O)c3ncccc23)[se]c2ccccc21

Response:
1. > 100 µM (inactive)
2. > 100 µM (inactive)
3. 3.6 µM (inactive)
4. 16.2 µM (inactive)
5. > 100 µM (inactive)
6. 7.76 µM (inactive)

Please supply GI50 for each of the following items, keeping them in order.
1. O=C(CCN1CCOCC1)c1ccc(Oc2ccc(F)cc2)cc1
2. CC(=O)C1(c2ccccc2)CCCN(C)CC1 (stereo not drawn)
3. O=[N+]([O-])C(/C=C(\Cl)[N+](=O)[O-])=C(N1CCOCC1)N1CCOCC1
4. CC1=NC(C)(C)[N+]([O-])=C1

Response:
31.3 µM (inactive)
> 100 µM (inactive)
> 100 µM (inactive)
> 10 µM (inactive)

Please supply GI50 for each of the following items, keeping them in order.
1. COC(=O)C(C)N(C)C(=O)[C@H](CC(N)=O)N(C)C(=O)[C@@H]1CCCN1C(=O)[C@H](C(C)C)N(C)C(=O)C(C(C)C)N(C)C(=O)[C@@H](NC(=O)OC(C)(C)C)C(C)C (stereo partly drawn) (Boc-V[ξNMeV][NMeV]P[NMeN][ξNMeA]-OMe)
2. CCCn1cc2c(SC)nc(SC)nc2n1
3. CCOP(=O)(OCC)/C(C#N)=C/c1ccccn1
4. CC1=NN(C(=O)Cc2ccccc2)C(=O)/C1=C\C=C\c1ccccc1
5. O=C1CCCn2c(nc3ccccc32)N1

Response:
31.7 µM (inactive)
> 100 µM (inactive)
> 100 µM (inactive)
> 100 µM (inactive)
> 100 µM (inactive)

Please supply GI50 for each of the following items, keeping them in order.
1. Oc1cc(-c2c[nH]c3ccccc23)nc2cc3c(cc12)OCO3
2. O=c1c2cc(Br)ccc2nc(CNc2ccccc2)n1-c1ccccc1

Response:
["> 100 µM (inactive)", "15.6 µM (inactive)"]

Please supply GI50 for each of the following items, keeping them in order.
1. CSc1n[n+](C)cc(N)c1N
2. N#Cc1cccc(/C=N/C23CC4CC(CC(C4)C2)C3)c1
3. CON1C(=O)C2(CCCCC2)C(=O)C12C=CC(C)CC2 (stereo not drawn)

Response:
> 100 µM (inactive)
> 10 µM (inactive)
38 µM (inactive)
